As a worked illustration, we turn to MIC data collected for Enterococcus faecalis ATCC 29212.
Form entry: value (µM) — number only.

// below: answered compounds
Request: Which MIC value is on record for `CC[C@H](C)[C@H](NC(=O)[C@H](CCCN=C(N)N)NC(=O)[C@H](CCCCN)NC(=O)[C@H](Cc1ccccc1)NC(=O)[C@H](Cc1c[nH]c2ccccc12)NC(=O)[C@@H](N)CCCCN)C(=O)N[C@@H](CCCCN)C(=O)N[C@H](C(=O)N[C@@H](Cc1ccccc1)C(=O)N[C@@H](Cc1c[nH]c2ccccc12)C(N)=O)[C@@H](C)O` ?
Response: 64

Request: Also `CC[C@H](C)[C@H](NC(=O)CN)C(=O)N[C@@H](CCCCN)C(=O)N[C@@H](CC(=O)O)C(=O)N[C@@H](CC(C)C)C(=O)N[C@@H](CC(C)C)C(=O)N[C@@H](CCCCN)C(=O)NCC(=O)N[C@@H](C)C(=O)N[C@@H](C)C(=O)N[C@@H](CCCCN)C(=O)N[C@@H](C)C(=O)N[C@@H](CC(C)C)C(=O)N[C@H](C(=O)N[C@@H](CCCCN)C(=O)N[C@H](C(=O)N[C@H](C(=O)N[C@@H](CC(C)C)C(=O)N[C@@H](CCCCN)C(N)=O)C(C)C)[C@@H](C)O)C(C)C` , if possible.
Response: 50

Request: Also `NC(=O)[C@H](Cc1c[nH]c2ccccc12)NC(=O)[C@H](CCCN=C(N)N)NC(=O)[C@H](Cc1c[nH]c2ccccc12)NC(=O)[C@H](CCCN=C(N)N)NC(=O)[C@H](CS)NC(=O)[C@H](Cc1ccccc1)NC(=O)[C@H](CCCN=C(N)N)NC(=O)[C@H](CCCN=C(N)N)NC(=O)[C@H](CCCN=C(N)N)NC(=O)[C@H](CS)NC(=O)[C@H](CCCN=C(N)N)NC(=O)[C@H](Cc1c[nH]c2ccccc12)NC(=O)[C@H](CCCN=C(N)N)NC(=O)[C@@H](N)Cc1c[nH]c2ccccc12` , if possible.
Response: 2

Now for another entry.
Request: Which MIC value is on record for `CC(C)[C@H](NC(=O)[C@H](CCCCN)NC(=O)[C@H](C)NC(=O)[C@H](C)NC(=O)[C@H](C)NC(=O)[C@H](CCCCN)NC(=O)[C@H](C)NC(=O)[C@H](C)NC(=O)[C@H](C)NC(=O)[C@H](CCCCN)NC(=O)[C@@H](NC(=O)[C@@H](N)Cc1c[nH]c2ccccc12)C(C)C)C(=O)N[C@@H](Cc1c[nH]c2ccccc12)C(N)=O` ?
Response: 64

* * *

tested on: Streptococcus pneumoniae
observation_type: MIC

// below: answered compounds
Request: Which MIC value is on record for CC[C@H](C)[C@H](NC(=O)CNC(=O)[C@H](Cc1cnc[nH]1)NC(=O)CNC(=O)CN)C(=O)N[C@@H](CCCN=C(N)N)C(=O)N[C@@H](CCCN=C(N)N)C(=O)N[C@H](C(=O)N[C@H](C(=O)N[C@@H](CCCN=C(N)N)C(=O)N[C@@H](CCCCN)C(=O)N[C@H](C(=O)N[C@H](C(=O)N[C@@H](Cc1cnc[nH]1)C(=O)N[C@H](C(=O)N[C@H](C(=O)N[C@@H](CCCCN)C(=O)N[C@@H](CCCCN)C(N)=O)[C@@H](C)CC)[C@@H](C)CC)[C@@H](C)CC)[C@@H](C)CC)[C@@H](C)CC)[C@@H](C)CC [GGHGIRRIIRKIIHIIKK] ?
Response: 16 µM

Request: Also CC[C@H](C)[C@H](NC(=O)[C@H](CCSC)NC(=O)[C@H](C)NC(=O)[C@@H]1CCCN1C(=O)[C@@H](NC(=O)[C@H](CCCN=C(N)N)NC(=O)[C@H](CCCCN)NC(=O)[C@@H](NC(=O)[C@H](CC(C)C)NC(=O)CNC(=O)CNC(=O)[C@H](CC(C)C)NC(=O)[C@@H](N)Cc1ccccc1)[C@@H](C)CC)C(C)C)C(=O)N[C@H]1CSSC[C@@H](C(=O)O)NC(=O)[C@H](CCCCN)NC(=O)[C@H](CCCCN)NC(=O)[C@H](CCCN=C(N)N)NC(=O)[C@H](C(C)C)NC(=O)[C@H](C)NC1=O [FLGGLIKRVPAMICAVRKKC] , if possible.
Response: ≥ 113 µM

Request: Also CC(C)C[C@H](NC(=O)[C@@H](N)CCCN=C(N)N)C(=O)N1CCC[C@H]1C(=O)N[C@@H](Cc1c[nH]c2ccccc12)C(=O)N[C@@H](CCCN=C(N)N)C(=O)N[C@@H](Cc1c[nH]c2ccccc12)C(=O)N1CCC[C@H]1C(=O)N[C@@H](CCCN=C(N)N)C(=O)N[C@@H](CCCN=C(N)N)C(=O)N1CCC[C@H]1C(=O)N[C@@H](Cc1c[nH]c2ccccc12)C(=O)N[C@@H](CCCN=C(N)N)C(=O)N[C@@H](CCCN=C(N)N)C(N)=O [RLPWRWPRRPWRR] , if possible.
Response: ≥ 130 µM

Continuing:
Request: Which MIC value is on record for CC[C@H](C)[C@H](NC(=O)[C@H](CC(C)C)NC(=O)[C@H](CO)NC(=O)[C@@H](NC(=O)[C@@H](NC(=O)[C@H](CC(C)C)NC(=O)CN)C(C)C)[C@@H](C)O)C(=O)N[C@@H](CCCCN)C(=O)NCC(=O)N[C@@H](C)C(=O)NCC(=O)N[C@@H](CCCCN)C(=O)N[C@@H](CC(C)C)C(=O)N[C@@H](CC(C)C)C(=O)NCC(=O)NCC(=O)N[C@@H](CC(C)C)C(=O)N[C@@H](Cc1ccccc1)C(=O)NCC(=O)N[C@@H](CO)C(=O)N[C@H](C(=O)N[C@H](C(=O)NCC(N)=O)[C@@H](C)O)C(C)C [GLVTSLIKGAGKLLGGLFGSVTG] ?
Response: 3.1 µM

Request: Also CC(C)C[C@H](NC(=O)[C@H](CC(C)C)NC(=O)[C@H](CCCN=C(N)N)NC(=O)[C@H](Cc1cnc[nH]1)NC(=O)[C@@H](NC(=O)[C@H](CCCN=C(N)N)NC(=O)CNC(=O)[C@@H](NC(=O)[C@@H]1CCCN1C(=O)[C@H](Cc1ccccc1)NC(=O)[C@H](CCC(N)=O)NC(=O)[C@H](CC(C)C)NC(=O)CNC(=O)[C@H](C)NC(=O)[C@@H](N)CCCN=C(N)N)C(C)C)C(C)C)C(=O)O [RAGLQFPVGRVHRLL] , if possible.
Response: ≥ 74.5 µM

* * *

# MIC per record follows
system: Bacillus subtilis ATCC 6633; test: ≥ marks a high value that may be exact or a test limit, other limits are often not marked, values filed in µg/mL are converted to µM
Form entry: value (µM) — number only.

Request: Which MIC value is on record for `C[C@H](NC(=O)[C@H](C)NC(=O)[C@H](Cc1ccccc1)NC(=O)[C@H](C)NC(=O)[C@H](C)NC(=O)[C@H](Cc1c[nH]c2ccccc12)NC(=O)[C@H](C)NC(=O)[C@H](C)NC(=O)[C@H](Cc1ccccc1)NC(=O)[C@H](C)NC(=O)[C@H](C)NC(=O)[C@H](CCCCN)NC(=O)[C@H](CCCCN)NC(=O)[C@H](CCCCN)NC(=O)[C@H](CCCCN)NC(=O)[C@H](CCCCN)NC(=O)[C@@H](N)CCCCN)C(N)=O` ?
Response: 8

Request: Also `CC(C)C[C@H](NC(=O)[C@H](CC(=O)O)NC(=O)[C@H](CC(C)C)NC(=O)[C@H](CCCCN)NC(=O)[C@H](CC(C)C)NC(=O)[C@H](CC(=O)O)NC(=O)[C@H](CC(C)C)NC(=O)[C@H](CCCCN)NC(=O)[C@H](CC(C)C)NC(=O)[C@H](CC(=O)O)NC(=O)[C@H](CC(C)C)NC(=O)[C@H](CCCCN)NC(=O)[C@@H](N)CCCN=C(N)N)C(=O)O` , if possible.
Response: 30

Request: Also `CC(C)C[C@H](NC(=O)[C@H](CC(=O)O)NC(=O)[C@H](CC(C)C)NC(=O)[C@H](CCCCN)NC(=O)[C@H](CC(C)C)NC(=O)[C@H](CC(=O)O)NC(=O)[C@H](CC(C)C)NC(=O)[C@H](CCCCN)NC(=O)[C@H](CC(C)C)NC(=O)[C@H](CC(=O)O)NC(=O)[C@H](CC(C)C)NC(=O)[C@H](CCCCN)NC(=O)[C@H](CCCN=C(N)N)NC(=O)[C@@H](N)CCCN=C(N)N)C(=O)O` , if possible.
Response: 10

Continuing:
Request: Which MIC value is on record for `CC(C)C[C@H](NC(=O)[C@@H](NC(=O)[C@H](CO)NC(=O)[C@H](CC(C)C)NC(=O)[C@@H]1CCCN1C(=O)[C@H](CC(C)C)NC(=O)[C@H](CO)NC(=O)[C@H](CCCCN)NC(=O)[C@H](CO)NC(=O)[C@@H](N)Cc1ccc(O)cc1)C(C)C)C(=O)N[C@@H](CC(N)=O)C(=O)N1CCC[C@H]1C(=O)O` ?
Response: 12.1
